Biological target: Pim3 kinase (Homo sapiens)
Assay: Pim3 AlphaScreen assay (high ATP)
pIC50: −log10 of the molar value.
If the reported pIC50 equals or exceeds 8, assign Satisfied. If not, assign Not satisfied.

{"columns": ["Structure String", "Label"],
 "data": [
  ["C[C@H]1C[C@@H](c2ccncc2NC(=O)c2ccc(F)c(-c3c(F)cc(C4(F)COC4)cc3F)n2)C[C@@H](N)[C@]1(C)O", "Satisfied"],
  ["C[C@@H]1C[C@H](c2ccncc2NC(=O)c2ccc(F)c(-c3c(F)cccc3F)n2)C[C@H](N)[C@@]1(C)O", "Not satisfied"],
  ["C[C@H]1C[C@@H](c2ccncc2NC(=O)c2ccc(F)c(-c3c(F)cc(N4CCOCC4)cc3F)n2)C[C@@H](O)[C@]1(C)O", "Not satisfied"],
  ["COCCOc1ccc(F)c(-c2nc(C(=O)Nc3cnccc3[C@H]3C[C@@H](N)[C@](C)(O)[C@@H](C)C3)ccc2F)c1F", "Satisfied"],
  ["C[C@H]1C[C@@H](c2ccncc2NC(=O)c2ccc(F)c(-c3c(F)cc(OCCO)cc3F)n2)C[C@@H](O)[C@]1(C)O", "Not satisfied"],
  ["C[C@@H]1C[C@H](c2ccncc2NC(=O)c2ccc(F)c(-c3c(F)cccc3F)n2)C[C@H](O)[C@]1(O)CF", "Not satisfied"]
]}

----------
Target: Pim3 kinase (Homo sapiens, UniProt Q86V86)
Assay: KinaseGlo Pim3 ATP depletion assay
Type: biochemical
Settings: Table 4, 40 μM ATP, 100 μM BAD peptide
Recorded log10 of IC50 by entry
Quantity Kind: log10 of IC50 (log10 of the value in nM)

{"columns": ["Structure String", "Quantity Kind", "Reading"],
 "data": [
  ["C[C@@H]1C[C@H](c2ccncc2NC(=O)c2ccnc(-c3c(F)cccc3F)n2)C[C@H](O)[C@]1(O)CO", "log10 of IC50", 2.59],
  ["C[C@H]1C[C@@H](c2ccncc2NC(=O)c2nc(-c3nc(Cl)ccc3F)ccc2N)C[C@@H](O)[C@]1(C)O", "log10 of IC50", 0.28],
  ["C[C@H]1C[C@@H](c2ccncc2NC(=O)c2nc(-c3c(F)cccc3F)c(F)cc2N)C[C@@H](O)[C@]1(C)O", "log10 of IC50", 0.15],
  ["CC[C@]1(O)[C@H](O)C[C@H](c2ccncc2NC(=O)c2nc(-c3c(F)cccc3F)c(F)cc2N)C[C@@H]1C", "log10 of IC50", 0.26],
  ["CC[C@]1(O)[C@H](O)C[C@H](c2ccncc2NC(=O)c2ccc(F)c(-c3c(F)cccc3F)n2)C[C@@H]1C", "log10 of IC50", 0.46]
]}

----------
Recorded IC50 by entry
Biological target: Pim1 kinase (Homo sapiens, UniProt P11309)
Sequence (P11309 whole entry): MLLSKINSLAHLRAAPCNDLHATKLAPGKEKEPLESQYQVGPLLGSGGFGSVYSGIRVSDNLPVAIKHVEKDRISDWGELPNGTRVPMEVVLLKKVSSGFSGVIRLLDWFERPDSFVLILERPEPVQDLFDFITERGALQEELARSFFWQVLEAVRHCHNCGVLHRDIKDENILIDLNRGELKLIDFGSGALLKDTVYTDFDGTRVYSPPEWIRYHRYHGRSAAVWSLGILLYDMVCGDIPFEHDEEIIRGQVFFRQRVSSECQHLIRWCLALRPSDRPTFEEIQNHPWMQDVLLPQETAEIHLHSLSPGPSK
Assay: Pim1 AlphaScreen assay (high ATP)

{"columns": ["Structure String", "Measured Target", "IC50"],
 "data": [
  ["C[C@H]1C[C@@H](c2ccncc2NC(=O)c2ccc(F)c(-c3c(F)cc(C4(O)COC4)cc3F)n2)C[C@@H](O)[C@]1(C)O", "Pim1 kinase (Homo sapiens, UniProt P11309)", "820 pM"],
  ["C[C@H]1C[C@@H](c2ccncc2NC(=O)c2ccc(F)c(-c3c(F)cc(OCC4CCOCC4)cc3F)n2)C[C@@H](N)[C@]1(C)O", "Pim1 kinase (Homo sapiens, UniProt P11309)", "40 pM"],
  ["C[C@H]1C[C@@H](c2ccncc2NC(=O)c2nc(-c3nc(Cl)c(C#N)cc3F)ccc2N)C[C@@H](O)[C@]1(C)O", "Pim1 kinase (Homo sapiens, UniProt P11309)", "146000 pM"],
  ["COCCOc1cc(F)c(-c2nc(C(=O)Nc3cnccc3[C@H]3C[C@@H](O)[C@](C)(O)[C@@H](C)C3)ccc2F)c(F)c1", "Pim1 kinase (Homo sapiens, UniProt P11309)", "890 pM"],
  ["C[C@H]1C[C@@H](c2ccncc2NC(=O)c2nc(-c3nc(F)c(F)cc3F)ccc2N)C[C@@H](O)[C@]1(C)O", "Pim1 kinase (Homo sapiens, UniProt P11309)", "29000 pM"],
  ["C[C@H]1C[C@@H](c2ccncc2NC(=O)c2ccc(F)c(-c3c(F)ccc(OCCO)c3F)n2)C[C@@H](N)[C@]1(C)O", "Pim1 kinase (Homo sapiens, UniProt P11309)", "100 pM"],
  ["C[C@H]1C[C@@H](c2ccncc2NC(=O)c2csc(-c3c(F)cccc3F)n2)C[C@@H](N)[C@]1(C)O", "Pim1 kinase (Homo sapiens, UniProt P11309)", "1900 pM"],
  ["C[C@H]1C[C@@H](c2ccncc2NC(=O)c2ccc(F)c(-c3c(F)cc(OCC(=O)N(C)C)cc3F)n2)C[C@@H](N)[C@]1(C)O", "Pim1 kinase (Homo sapiens, UniProt P11309)", "90 pM"],
  ["C[C@H]1C[C@@H](c2ccncc2NC(=O)c2ccc(F)c(-c3c(F)cc(C4(F)CCOCC4)cc3F)n2)C[C@@H](O)[C@]1(C)O", "Pim1 kinase (Homo sapiens, UniProt P11309)", "550 pM"],
  ["Cc1cc(F)c(-c2nc(C(=O)Nc3cnccc3[C@H]3C[C@@H](C)[C@](C)(O)[C@@H](N)C3)ccc2F)c(F)c1", "Pim1 kinase (Homo sapiens, UniProt P11309)", "13700 pM"],
  ["C[C@H]1C[C@@H](c2ccncc2NC(=O)c2ccc(F)c(-c3c(F)cc(C4=CCCC4)cc3F)n2)C[C@@H](N)[C@]1(C)O", "Pim1 kinase (Homo sapiens, UniProt P11309)", "30 pM"],
  ["C[C@H]1C[C@@H](c2ccncc2NC(=O)c2ccc(F)c(-c3c(F)cc(C4CCOCC4)cc3F)n2)C[C@@H](N)[C@]1(C)O", "Pim1 kinase (Homo sapiens, UniProt P11309)", "20 pM"],
  ["C[C@H]1C[C@@H](c2ccncc2NC(=O)c2ccc(F)c(-c3c(F)cc(O[C@H]4CCCOC4)cc3F)n2)C[C@@H](N)[C@]1(C)O", "Pim1 kinase (Homo sapiens, UniProt P11309)", "20 pM"]
]}
